- measured-target: Tau-RD3 (Tau repeat domain 3) (Homo sapiens)
- method-summary: Tau disaggregation test by Thioflavin-T analysis
- Type: biochemical
- test-context: Tau-RD3 35 µM aggregated 24 hours, then compound 0 - 500 µM for 48 hours at 37 °C; concentration disaggregating 50 % of aggregates vs control; read-out: EC50 (µM) Tau
Examples of compounds with documented EC50 follow.

> print(dat)
                         structure.notation  recorded.value
1  COc1ccccc1C1=C(c2cccnc2)C(=O)c2cc(O)ccc21    20 to 100 µM

If you can, please state the reported EC50 value of Cc1ncsc1C1=C(c2ccncc2)C(=O)c2cc(OCCCc3ccccc3)ccc21 .
> 250 µM

----------
- measured-target: Tau-RD3 (Tau repeat domain 3) (Homo sapiens, UniProt P10636)
- Sequence (P10636 623-653 limits assumed): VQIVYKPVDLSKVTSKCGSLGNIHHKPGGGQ
- method-summary: Tau disaggregation test by Thioflavin-T analysis
- Type: biochemical
- test-context: Tau-RD3 35 µM aggregated 24 hours, then compound 0 - 500 µM for 48 hours at 37 °C; concentration disaggregating 50 % of aggregates vs control; read-out: EC50 (µM) Tau
reported-endpoint: EC50

> print(dat)
                                   compound  reported.endpoint  recorded.value
1  CNc1ccc2c(c1)C(=O)C(c1ccccc1)=C2c1ccccc1 [Compound 67]               EC50        > 250 µM
2  CNc1ccc2c(c1)C(=O)C(c1cccnc1)=C2c1scnc1C [Compound 50]               EC50        > 250 µM

I would be grateful if you could share the reported EC50 for Cc1ncsc1C1=C(c2ccc(CN3CCN(C)CC3)cc2)C(=O)c2ccccc21 [Compound 86] .
< 20 µM

# input compound: O=C1C(c2ccccc2)=C(c2ccc(CN3CCOCC3)cc2)c2ccccc21 [Compound 16] ; wanted: its EC50
> 250 µM

Quick one: EC50 of CN1CCN(c2ccc3c(c2)C(=O)C(c2cccc(N4CCOCC4)c2)=C3c2cccc(N3CCOCC3)c2)CC1 [Compound 80] ?
100 to 250 µM

For the compound shown here, Cc1ncsc1C1=C(c2scnc2C)c2ccc(N3CCN(C)CC3)cc2C1=O [Compound 79] , give the reported EC50.
20 to 100 µM

Fill blank: measured EC50 of the compound Cc1scnc1C1=C(c2cccnc2)C(=O)c2cc(OCCCc3ccncc3)ccc21 [Compound 23] is ____.
< 20 µM

So what does the record say about EC50 for Cn1cc(C2=C(c3cccnc3)C(=O)c3cc(O)ccc32)cn1 [Compound 42-7] ?
100 to 250 µM

Sample Cc1ncsc1C1=C(c2cccnc2)C(=O)c2cc(NC3CCOCC3)ccc21 [Compound 56] — what was its EC50?
20 to 100 µM

----------
Recorded EC50, one value per entry.
- measured-target: Aβ1-42 (Homo sapiens, UniProt P05067)
- Construct: dissolving Aβ1-42 or Tau-RD3 (Tau repeat domain 3) monomers in DMSO
- Sequence (P05067 672-713 limits assumed): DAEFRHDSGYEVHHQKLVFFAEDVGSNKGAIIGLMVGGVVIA
- method-summary: Amyloid-beta disaggregation test by Thioflavin-T analysis
- Format: biochemical
- test-context: Aβ1-42 50 µM aggregated 24 hours, then compound 0 - 500 µM for 48 hours at 37 °C; concentration disaggregating 50 % of aggregates vs control; read-out: EC50 (µM) Aβ

> print(dat)
                         structure.notation  reported.endpoint  recorded.value
1  Cc1ncsc1C1=C(c2cccnc2)C(=O)c2cc(NCC3CCOCC3)ccc21               EC50        > 250 µM
2  Cc1ncsc1C1=C(c2ccc(N3CCN(C)CC3)cc2)C(=O)c2cc(OCCCc3ccccc3)ccc21               EC50         < 20 µM
3  Cc1ncsc1C1=C(c2cccnc2)C(=O)c2cc(NCCOc3ccccc3)ccc21               EC50         < 20 µM
4      O=C1C(c2cccnc2)=C(c2ccccc2)c2ccccc21               EC50         < 20 µM

Now look at this entry.
Look up EC50 with Aβ1-42 (Homo sapiens, UniProt P05067) for this compound: Cc1ncsc1C1=C(c2ccc(N3CCN(C)CC3)cc2)C(=O)c2ccccc21
> 250 µM
